# Measured Target: PI3Kδ (p110δ/p85α) (Homo sapiens (Human), UniProt O00329)
# Sequence (O00329 whole entry): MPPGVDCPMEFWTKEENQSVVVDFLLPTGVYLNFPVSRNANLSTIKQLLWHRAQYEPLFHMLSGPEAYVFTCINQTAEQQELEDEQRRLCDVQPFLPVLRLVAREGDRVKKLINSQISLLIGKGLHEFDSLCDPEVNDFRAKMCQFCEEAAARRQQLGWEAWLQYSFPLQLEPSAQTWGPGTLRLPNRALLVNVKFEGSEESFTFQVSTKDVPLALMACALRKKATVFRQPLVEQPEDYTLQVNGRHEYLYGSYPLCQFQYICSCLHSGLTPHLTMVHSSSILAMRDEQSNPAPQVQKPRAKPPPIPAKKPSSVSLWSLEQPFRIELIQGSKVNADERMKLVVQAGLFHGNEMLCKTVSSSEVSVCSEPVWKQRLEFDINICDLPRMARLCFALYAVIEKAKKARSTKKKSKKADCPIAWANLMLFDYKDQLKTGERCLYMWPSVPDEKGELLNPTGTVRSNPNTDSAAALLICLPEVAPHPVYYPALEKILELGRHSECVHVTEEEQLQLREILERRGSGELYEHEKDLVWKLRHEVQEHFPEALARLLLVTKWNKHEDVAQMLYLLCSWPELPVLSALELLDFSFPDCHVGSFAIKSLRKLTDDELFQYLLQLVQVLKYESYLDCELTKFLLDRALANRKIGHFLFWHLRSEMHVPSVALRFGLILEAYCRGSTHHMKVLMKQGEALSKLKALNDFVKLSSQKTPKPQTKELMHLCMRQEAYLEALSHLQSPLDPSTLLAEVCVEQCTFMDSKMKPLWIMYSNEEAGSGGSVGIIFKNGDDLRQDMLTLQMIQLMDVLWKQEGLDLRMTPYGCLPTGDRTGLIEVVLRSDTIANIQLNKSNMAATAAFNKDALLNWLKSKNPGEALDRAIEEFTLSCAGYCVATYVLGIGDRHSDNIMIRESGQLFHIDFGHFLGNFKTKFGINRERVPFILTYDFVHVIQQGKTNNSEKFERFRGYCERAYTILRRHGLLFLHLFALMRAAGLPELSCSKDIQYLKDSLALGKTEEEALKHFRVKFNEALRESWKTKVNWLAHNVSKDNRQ
# Sequence (P27986 whole entry partner): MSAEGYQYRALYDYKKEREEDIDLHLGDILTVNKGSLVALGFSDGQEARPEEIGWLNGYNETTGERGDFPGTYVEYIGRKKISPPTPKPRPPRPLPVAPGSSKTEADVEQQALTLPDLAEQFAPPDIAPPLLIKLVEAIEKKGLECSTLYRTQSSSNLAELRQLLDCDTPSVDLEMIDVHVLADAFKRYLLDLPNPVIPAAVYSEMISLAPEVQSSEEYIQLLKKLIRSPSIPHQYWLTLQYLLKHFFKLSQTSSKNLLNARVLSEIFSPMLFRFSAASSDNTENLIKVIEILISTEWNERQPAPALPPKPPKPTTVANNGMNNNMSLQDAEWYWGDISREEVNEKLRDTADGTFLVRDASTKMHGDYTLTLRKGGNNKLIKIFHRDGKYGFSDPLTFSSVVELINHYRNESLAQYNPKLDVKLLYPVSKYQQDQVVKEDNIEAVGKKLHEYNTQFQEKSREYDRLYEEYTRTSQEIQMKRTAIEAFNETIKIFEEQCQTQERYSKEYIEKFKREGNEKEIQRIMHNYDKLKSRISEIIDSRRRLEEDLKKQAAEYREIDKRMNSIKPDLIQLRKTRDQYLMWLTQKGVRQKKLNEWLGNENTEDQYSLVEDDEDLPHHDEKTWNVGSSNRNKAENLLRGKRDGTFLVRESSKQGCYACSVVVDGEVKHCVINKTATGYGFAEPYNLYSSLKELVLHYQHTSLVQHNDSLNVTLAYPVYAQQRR
# Experiment: PI3Kδ scintillation proximity assay (Example A3)
# Measurement Context: 20 μM ATP, 20 μM PIP2, 4 nM PI3Kδ; read-out: PI3Kδ SPA IC50
Measured Quantity: IC50

1. CCOc1c(C(C)n2nc(C)c3c(N)ncnc32)cc(C)c(C#N)c1-c1cncc(S(C)(=O)=O)c1 (single isomer, unassigned)    ≤ 10 nM

Consider now this further compound.
Request: Tell me measured IC50 for CCOc1c(C(C)n2nc(C)c3c(N)ncnc32)cc(Cl)c(C#N)c1C1CN(C(=O)C(C)(C)C)C1 (single isomer, unassigned) please.
Response: ≤ 10 nM

----------
# Measured Target: PI3Kδ (p110δ/p85α) (Homo sapiens (Human))
# Experiment: PI3Kδ scintillation proximity assay (Example A3)
# Format: biochemical
# Measurement Context: 20 μM ATP, 20 μM PIP2, 4 nM PI3Kδ; read-out: PI3Kδ SPA IC50
Measured Quantity: IC50

Check out these entries, answers already filled in.
1. CCOC(=O)N1CC(c2c(C#N)c(Cl)cc(C(C)n3nc(C)c4c(N)ncnc43)c2OCC)C1 (single isomer, unassigned) [Example 253]    ≤ 10 nM
2. COc1c(C(C)n2nc(C)c3c(N)ncnc32)cc(C#N)c(C)c1-c1ccnc(C(=O)N(C)CCO)c1 (racemic) [Example 40]    10 to 50 nM
3. CCOc1c(C(C)n2nc(C)c3c(N)ncnc32)cc(Cl)c(C#N)c1C1CN(C2CCC2)C1 (single isomer, unassigned) [Example 218]    ≤ 10 nM
4. COc1c(C(C)n2nc(C)c3c(N)ncnc32)cc(Cl)c(C#N)c1C1CN(CC2CCOCC2)C1 (single isomer, unassigned) [Example 280]    ≤ 10 nM
5. CCOc1c(C(C)n2nc(C)c3c(N)ncnc32)cc(Cl)c(C)c1C1CN(CCO)C1 (racemic) [Example 95, bis(trifluoroacetate)]    ≤ 10 nM
6. CCOc1c(C(C)n2nc(C)c3c(N)ncnc32)cc(Cl)c(C#N)c1-c1cncc(C#N)c1 (single isomer, unassigned) [Example 330]    ≤ 10 nM

Request: State its IC50 for this molecule: CCOc1c(C(C)n2nc(C)c3c(N)ncnc32)cc(Cl)c(F)c1C1CNC(=O)O1 (single isomer, unassigned) [Example 356]
Response: 50 to 200 nM

Request: Read off the recorded IC50 for COc1c(C(C)n2nc(C)c3c(N)ncnc32)cc(Cl)c(C)c1-c1ccc(N)nc1 (single isomer, unassigned) [Example 171]
Response: ≤ 10 nM

Request: State its IC50: CNC(=O)c1ccc(-c2c(C)c(Cl)cc(C(C)n3nc(C)c4c(N)ncnc43)c2OC)cn1 (single isomer, unassigned) [Example 173]
Response: ≤ 10 nM

----------
# Measured Target: PI3Kδ (p110δ/p85α) (Homo sapiens (Human), UniProt O00329)
# Experiment: PI3Kδ scintillation proximity assay (Example A3)
# Measurement Context: 20 μM ATP, 20 μM PIP2, 4 nM PI3Kδ; read-out: PI3Kδ SPA IC50
# Method: [γ-^33P]ATP (10 mCi/mL) was purchased from Perkin-Elmer (Waltham, Mass.). […] PI3Kδ (p110δ/p85α) was purchased from Millipore (Bedford, Mass.). ATP, MgCl2, DTT, EDTA, MOPS and CHAPS were purchased from Sigma-Aldrich (St. Louis, Mo.). Wheat Germ Agglutinin (WGA) YSi SPA Scintillation Beads was purchased from GE healthcare life sciences (Piscataway, N.J.). The kinase reaction was conducted in polystyrene 384-well matrix white plate from Thermo Fisher Scientific in a final volume of 25 μL. […]
pIC50: −log10 of the molar value.
Each entry below lists one item and its recorded pIC50 value.

1) COc1c(C(C)n2nc(C)c3c(N)ncnc32)cc(Cl)c(C#N)c1C1CN(C(=O)C(C)C)C1 (single isomer, unassigned) [Example 283]    ≥ 8.00

Request: Report pIC50, nothing else, for this compound: CCOc1c(C(C)n2nc(CN(C)C)c3c(N)ncnc32)cc(Cl)c(C)c1-c1ccc(C(=O)N(C)C)nc1 (racemic) [Example 85, tris(trifluoroacetate)]
Response: 6.70 to 7.30

Request: For CCOc1c(C(C)n2nc(C)c3c(N)ncnc32)cc(Cl)c(C#N)c1C1CN(C(=O)C(C)C)C1 (single isomer, unassigned) [Example 244] , write its pIC50.
Response: ≥ 8.00

Request: Answer with the recorded pIC50 of COc1c(C(C)n2nc(C)c3c(N)ncnc32)cc(C#N)c(C)c1-c1cnn(C)c1 (single isomer, unassigned) [Example 209] only.
Response: 7.30 to 8.00

Request: Using known records, supply pIC50 for COc1c(C(C)n2nc(C)c3c(N)ncnc32)cc(Cl)c(Cl)c1C1CN(C(C)C)C1 (single isomer, unassigned) [Example 299]
Response: ≥ 8.00
